- EXPERIMENT: Cmax in CD1 mouse at 20 mg/kg, po by LCMS/MS analysis
- Format: ADME, organism-based
- Set-up: dose 20 mg/kg, route oral
- MEASUREMENT_CONDITIONS: CD1, mouse, in vivo
Consider the following compounds and their measured Cmax readings.
MEASUREMENT_LABEL: Cmax (ng/mL)

INSERT INTO measurements (compound, reported_result) VALUES
  ('CC(C)=CCC[C@]1(C)C=Cc2c(O)c3c(c(CC=C(C)C)c2O1)O[C@]12C(=C[C@@H]4C[C@H]1C(C)(C)O[C@@]2(C/C=C(/C)C(=O)O)C4=O)C3=O [GAMBOGIC ACID]', 191),
  ('CC(C)=CCc1c(O)cc(O)c2c1O[C@@]13C(=C[C@H]4C(=O)C1(CC=C(C)C)OC[C@@H]3[C@H]4CN1CCN(c3ccccc3)CC1)C2=O', 14.9),
  ('CC(C)=CCC12OC[C@@H]3[C@@H](CN4CCN(C)CC4)[C@@H](C=C4C(=O)c5c(O)cccc5O[C@]431)C2=O', 79.6);
